assay: melting temperature; fluorescence melt of hairpins on a sequencing array, two-state fit, raised by 9.35 °C to match UV melts; details: sodium 0.088 M
readout: Tm (°C)
Number only, in °C; omit the unit.

Query: Fill in: Tm of GAATGCGGAAACGCATTC (((((((....))))))) is ___
Result: 67.5

Query: Also GATTGGGGAAACCCAGTC ((.((((....)))).)) , if possible.
Result: 44.7

Query: Also GATCCCCTATGGGATC ((((((....)))))) , if possible.
Result: 60.8

Query: Also GGCACCGGAAACAGTGCC (((((.(....).))))) , if possible.
Result: 53.9

Query: Also GTTGCTGCGAAAGCAAAC (((..(((....)))))) , if possible.
Result: 37.8

Query: Also GAAAGACGAAAGTCATTC (((.(((....))).))) , if possible.
Result: 38.2

Query: Also GCTAATCGAAAGATAGC (((.(((....)))))) , if possible.
Result: 44.6

Query: Also GTGGTTCGAAAGAAGCAC (((.(((....))).))) , if possible.
Result: 60.1

Query: Also GATCGTGACCACGATC ((((((....)))))) , if possible.
Result: 61.3

Query: Also GATCTAAAATAGATC ((((((...)))))) , if possible.
Result: 38.6

Query: Also GGGCAGTCGAAAGACCCC (((..(((....)))))) , if possible.
Result: 41.7

Query: Also GTCGCGGGAAACCGTGAC (((.(((....))).))) , if possible.
Result: 59.8

Query: Also GCGAGCTCTCGC ((((....)))) , if possible.
Result: 53.1

Query: Also GTGACCGGAAACGGCCAC (((.(((....))).))) , if possible.
Result: 54.2

Query: Also GACTTCCGAAAGGATGTC (((.(((....))).))) , if possible.
Result: 52.8

Query: Also GTCTGCGAAAGCATGGAC ((((((....)))..))) , if possible.
Result: 40.7

Query: Also GATCACAATGGTGATC ((((((....)))))) , if possible.
Result: 55.3

Query: Also GCGATCGCGAAAGCGCGC (((..(((....)))))) , if possible.
Result: 55.2

Query: Also GCGGTTGCCCGC ((((....)))) , if possible.
Result: 62

Query: Also GTAGGCTCGAAAGAGTAC (((..(((....)))))) , if possible.
Result: 29.2

Query: Also TAAGGGAAACCTTA (((((....))))) , if possible.
Result: 29.1

Query: Also GTTCCCGAAAGGGAAAC ((((((....))).))) , if possible.
Result: 49.6

Query: Also GATCGGTGAACCGATC ((((((....)))))) , if possible.
Result: 61

Query: Also GGGAGACGAAAGTCCCCC (((.(((....))).))) , if possible.
Result: 58.8

Query: Also GTGTGTCGAAAGACCCAC (((.(((....))).))) , if possible.
Result: 49.4

Query: Also GCATTTGGAAACAAGTGC (((.(((....))).))) , if possible.
Result: 46.3
